Source: the supplement of paper PMC10567573

B1: PTPRD (parent)
chain: LTKLREMGREKCHQYWPAERSARY

variants of: B1; test: protein stability index of a GFP-peptide fusion (GPS, HEK-293T) (PSI 1-6); higher = more stable; details: c terminus: a fixed tail appended;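 further: lentivirally expressed fusions sorted by FACS into six bins by GFP to DsRed ratio, PSI derived from sequencing read proportions per bin multiplied by bin number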
measured.parameter: protein stability index

// solved cases for protein stability index follow
Documented protein stability index of `K3G` : 2.64

# variant `Q14E` ; its protein stability index = 3.05

// `L1I` : protein stability index value = 2.26

Reported protein stability index for `A22K` was 2.65

# protein stability index of `R20Q` = 2.38

Further cases:
protein stability index measured on `E6V` = 1.73
